tested on: RPMI-8226 leukemia; experiment: NCI tumour cell line growth inhibition, 48 h
The compounds listed here are annotated with their GI50.

Examples with their reported GI50 follow.
# compound, experimental_system, value_observed
rows = [
    ("COc1ccc2[nH]cc(/C=C(/C)c3ccncc3)c2c1", "RPMI-8226 leukemia", "2700 nM"),
    ("C[C@]12CCC3c4ccc(O)cc4CCC3C1CC[C@@]2(O)CNC(=O)/C=C/c1ccc(O)c(O)c1 (stereo partly drawn)", "RPMI-8226 leukemia", "8560 nM"),
    ("COc1cc(/C(C#N)=C/c2nc3c(N4CCOCC4)nc(Cl)nc3n2C)cc(OC)c1OC", "RPMI-8226 leukemia", "< 10 nM"),
    ("Nc1cc(NN=C(c2ccc(O)cc2)c2ccc(O)cc2)c([N+](=O)[O-])cc1[N+](=O)[O-]", "RPMI-8226 leukemia", "2150 nM"),
    ("CCCCCCCCCCCCCCCC[N+](C)(C)Cc1ccccc1", "RPMI-8226 leukemia", "51.6 nM"),
    ("O=C1c2cc3c(cc2-c2c1c1ccc(F)cc1c(=O)n2C[C@H](O)[C@@H](O)[C@H](O)CO)OCO3", "RPMI-8226 leukemia", "422 nM"),
]

Proceeding to the next compound to report its GI50.
Q: Given the compound O=c1ccc2ccccc2cc1[O-].O=c1ccc2ccccc2cc1[O-].[O]=[U+2]=[O] , what is its reported GI50?
A: 17000 nM

###

system: 786-0 renal; assay: NCI tumour cell line growth inhibition, 48 h
Lab note: anything with TGI at or over 30 µM counts as true (1); the rest go in false (0).

# molecule, label_class
records = [
    ("[N-]=[N+]=NC(c1ccccc1)(c1ccccc1)c1ccccc1", "true (1)"),
    ("O=S(=O)(c1ccccc1)N1CCN(S(=O)(=O)c2ccccc2)c2ccccc21", "true (1)"),
    ("CC1CN(C)c2ccccc2N=C1NN (configuration not stated)", "true (1)"),
    ("CC1(C)O[C@H]2OC(CO[Si](C)(C)C(C)(C)C)C(N=[N+]=[N-])[C@H]2O1 (some centres not stated)", "true (1)"),
    ("O=[N+]([O-])c1ccc2[nH]nc(OCc3ccccc3Cl)c2c1", "true (1)"),
    ("O=[N+]([O-])c1cc(C=NC23CC4CC(CC(C4)C2)C3)ccc1Cl", "true (1)"),
    ("CN(C)CCNS(=O)(=O)c1ccc(N)cc1", "true (1)"),
    ("COc1ccc(OC)c(N2CC(N)C2=O)c1 (configuration not stated)", "true (1)"),
    ("Cc1ccc(N(Cc2ccccc2)Cc2ccccc2)cc1", "true (1)"),
    ("O=C(Oc1ccc(Cl)cc1)c1ccccc1Nc1ccnc(C(F)(F)F)c1", "false (0)"),
]

Q: Does the molecule O=C(/C=C/c1ccc2c(c1)OCO2)c1ccc(O)cc1 have recorded TGI that is 30 µM or more?
A: false (0)

Q: Can you check CC(C)[C@@H]1C=C2CC[C@H]3[C@](C)(CN)CCC[C@]3(C)[C@H]2CC1 next?
A: false (0)

###

tested on: HOP-62 NSCLC; assay: NCI tumour cell line growth inhibition, 48 h
// reported TGI for each item listed

Previously resolved entries follow.
# compound, value_observed
records = [
    ("Cc1ccc(/C=C/C(=O)CCN(C)C)cc1", "> 100 µM"),
    ("C#CCn1c(=O)c2ccccc2n(CC#C)c1=O", "> 10 µM"),
    ("NC(=O)C(=Cn1c(=S)[nH]c2ccc([N+](=O)[O-])cc21)C(N)=O", "> 100 µM"),
]

Now, please, on to the next compound.
Q: State the recorded TGI for this entry: Cc1ccc(NC(=O)CC2Sc3ccccc3NC2=O)cc1C (centres undefined)
A: > 100 µM
